MOLECULE: c1cnc(N2CCN(Cc3nc4ccccc4[nH]3)CC2)nc1
melting point: 198 to 200 °C
//
MOLECULE: CCOc1ccccc1N1CCN(Cc2nc3ccccc3[nH]2)CC1
melting point: 95 to 100 °C
//
MOLECULE: CN(C)C(=O)n1c(CN2CCN(c3ccccn3)CC2)nc2ccccc21
melting point: 174 to 176 °C
//
MOLECULE: CC1CN(c2ccccn2)CCN1Cc1nc2ccccc2[nH]1 (stereo not shown)
melting point: 207 to 209 °C
//
MOLECULE: Fc1ccccc1N1CCN(Cc2nc3ccccc3[nH]2)CC1
melting point: 262 to 264 °C
//
MOLECULE: Oc1ccc(N2CCN(Cc3nc4ccccc4[nH]3)CC2)cc1
melting point: 206 to 209 °C
//
MOLECULE: c1ccc2[nH]c(CN3CCN(c4nccs4)CC3)nc2c1
melting point: 203 to 205 °C
//
MOLECULE: Oc1ccccc1N1CCN(Cc2nc3ccccc3[nH]2)CC1
melting point: 208 to 216 °C
//
MOLECULE: CSc1ccccc1N1CCN(Cc2nc3ccccc3[nH]2)CC1
melting point: 214 to 216 °C
//
MOLECULE: C[C@H]1CN(c2ccccn2)CCN1Cc1nc2ccccc2[nH]1
melting point: 149 to 151 °C

Every entry's value here was drawn from patent US6960589B2.
